- assayed.system: human MC5R (hMC5R) (Homo sapiens, UniProt P33032)
- Construct: purchased Perkin Elmer RBXMC5M400UA
- Sequence (P33032 whole entry): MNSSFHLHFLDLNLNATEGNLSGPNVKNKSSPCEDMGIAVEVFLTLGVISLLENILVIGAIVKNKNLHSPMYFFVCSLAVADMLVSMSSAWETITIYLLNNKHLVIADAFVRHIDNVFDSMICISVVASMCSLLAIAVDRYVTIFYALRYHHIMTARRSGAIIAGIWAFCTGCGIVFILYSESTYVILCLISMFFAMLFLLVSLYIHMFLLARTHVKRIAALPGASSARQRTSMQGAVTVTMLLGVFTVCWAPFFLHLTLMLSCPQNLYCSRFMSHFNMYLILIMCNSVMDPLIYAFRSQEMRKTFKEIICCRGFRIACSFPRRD
- procedure.summary: Human MC5R radioligand binding assay (membranes, [125I] NDP-MSH displacement)
- condition.context: hMC5R binding; tested as trifluoroacetate or hydrochloride salts, or free bases; read-out: MC5R radioligand IC50
Give measured IC50 for each item. Keep answers brief.

Could you share which IC50 value was measured for CN(C)CC[C@@H]1N[C@H](CNC(=O)c2ccc3ccccc3c2)CCN(CC(c2ccccc2)c2ccccc2)C1=O ?
< 1000 nM

Query CC(CN1CC[C@@H](CNC(=O)c2ccc3ccccc3c2)N[C@@H](CCCNC(=N)N)C1=O)(c1ccccc1)c1ccccc1 next
< 1000 nM

Query CC(C)NCC[C@@H]1N[C@H](CNC(=O)c2ccc(Cl)c(Cl)c2)CCN(CC(c2ccccc2)c2ccccc2)C1=O next
< 1000 nM

Query CC(C)[C@@H](CN1CC[C@@H](CNC(=O)c2ccc3ccccc3c2)N[C@@H](CCN2CCCCC2)C1=O)c1ccccc1 next
< 1000 nM

Query CC[C@H](CN1CC[C@@H](CNC(=O)c2ccc3cc(Cl)ccc3c2)N[C@@H](CCNC(=N)NC)C1=O)c1ccccc1 next
< 100 nM

Query C=CCOC(CN1CC[C@@H](CNC(=O)c2ccc3ccccc3c2)N[C@@H](CCCNC(=N)N)C1=O)c1ccccc1 (stereo partly drawn) next
< 1000 nM

Query CCC[C@H](CN1CC[C@@H](CNC(=O)c2ccc3ccccc3c2)N[C@@H](CCN2CCCCC2)C1=O)c1ccccc1 next
< 100 nM

Query CCC(CN1CC[C@@H](CNC(=O)c2ccc3cc(Cl)ccc3c2)N[C@@H](CCN)C1=O)C1CC1 (stereo partly drawn) next
< 1000 nM

Query O=C(NC[C@@H]1CCN(Cc2cc(Cl)cc(Cl)c2)C(=O)[C@H](CCN2CCCCC2)N1)c1ccc2cc(Cl)ccc2c1 next
< 100 nM

Query O=C(NC[C@@H]1CCN(Cc2cc(Cl)cc(Cl)c2Cl)C(=O)[C@H](CCN2CCCCC2)N1)c1ccc2cc(Cl)ccc2c1 next
< 100 nM

Query O=C(NC[C@@H]1CCN(Cc2cc(Cl)cc(Cl)c2)C(=O)[C@H](CCN2CCCCC2)N1)c1cc(-c2ccc(Cl)cc2)on1 next
< 100 nM

Query N=C(N)NCCC[C@@H]1N[C@H](CNC(=O)Cc2c[nH]c3ccccc23)CCN(CC2CCCCC2)C1=O next
< 100 nM

Query NCCC[C@@H]1N[C@H](CNC(=O)c2ccc3ccccc3c2)CCN(Cc2cc(C(F)(F)F)cc(C(F)(F)F)c2)C1=O next
< 10000 nM

Query NCCC[C@@H]1N[C@H](CNC(=O)c2ccc3cc(Br)ccc3c2)CCN(CC(c2ccccc2)c2ccccc2)C1=O next
< 100 nM

Query CC[C@H](CN1CC[C@@H](CNC(=O)c2ccc3cc(Cl)ccc3c2)N[C@@H](CC(C)(C)N)C1=O)c1ccccc1 next
< 1000 nM

Query C[C@@H](CN1CC[C@@H](CNC(=O)c2ccc3ccccc3c2)N[C@@H](CCN2CCCCC2)C1=O)c1ccc(Cl)cc1 next
< 10000 nM

Query CCC(CC)CN1CC[C@@H](CNC(=O)c2ccc3cc(Cl)ccc3c2)N[C@@H](CCN)C1=O next
< 1000 nM

Query CCC(CC)CN1CC[C@@H](CNC(=O)c2ccc3cc(Cl)ccc3c2)N[C@@H](CCN2CCCCC2)C1=O next
< 100 nM

Query C[C@H](CN1CC[C@@H](CNC(=O)c2ccc3ccccc3c2)N[C@@H](CCN2CCCCC2)C1=O)c1ccc(Cl)cc1 next
< 1000 nM

Query O=C(NCC[C@@H]1CCN(CC(c2ccccc2)c2ccccc2)C(=O)[C@H](CCN2CCCCC2)N1)c1ccc2ccccc2c1 next
< 1000 nM

Query CCC(CC)CN1CC[C@@H](CNC(=O)c2ccc3cc(F)ccc3c2)N[C@@H](CCN2CCCCC2)C1=O next
< 100 nM

Query CC1CC(C)CC(CN2CC[C@@H](CNC(=O)c3ccc(Cl)c(Cl)c3)N[C@@H](CCN3CCCCC3)C2=O)C1 (stereo partly drawn) next
< 100 nM

Query O=C1[C@H](CCN2CCCCC2)N[C@H](CNCc2ccc(Cl)c(Cl)c2)CCN1CC(c1ccccc1)c1ccccc1 next
< 100 nM

Query CC[C@H](CN1CC[C@@H](CNC(=O)c2ccc3cc(Cl)ccc3c2)N[C@@H](CCN2CCCCCC2)C1=O)c1ccccc1 next
< 100 nM

Query C[C@H](CN1CC[C@@H](CNC(=O)c2ccc3ccccc3c2)N[C@@H](CCCN)C1=O)c1ccccc1 next
< 1000 nM

Query O=C(NC[C@@H]1CCN(Cc2ccc(Cl)cc2Cl)C(=O)[C@H](CCN2CCCCC2)N1)c1ccc2cc(Cl)ccc2c1 next
< 100 nM

Query CC[C@H](CN1CC[C@@H](CNC(=O)c2ccc3cc(Cl)ccc3c2)N[C@@H](CCN(C(C)=O)C(C)C)C1=O)c1ccccc1 next
< 1000 nM
